Tested on: NCI-H1793 (Lung Adenocarcinoma);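 note: after 72 h of two-drug dosing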
Test: Bliss excess, mean over the matrix (fraction); higher = more synergy
Observable: Bliss excess
Give bare numbers.

{"Molecule": "CCN(CCO)CCCOc1ccc2c(Nc3cc(CC(=O)Nc4cccc(F)c4)[nH]n3)ncnc2c1 [AZD2811] + O=C(c1cc(Cc2n[nH]c(=O)c3ccccc23)ccc1F)N1CCN(C(=O)C2CC2)CC1 [Olaparib] (first compound max 1 µM, 7x7, partner max 10 µM)", "Value measured": -0.0264}

Note: attention shifts to another entry.
response.value for NC1(C(=O)N[C@@H](CCO)c2ccc(Cl)cc2)CCN(c2ncnc3[nH]ccc23)CC1 [Capivasertib] + CC(=O)c1c(C)c2cnc(Nc3ccc(N4CCNCC4)cn3)nc2n(C2CCCC2)c1=O [Palbociclib] (first compound max 10 µM, 7x7, partner max 10 µM) (field: Bliss excess) = -0.0287
